- Test system: N27 rat dopaminergic neural cells
- Experiment Notes: MTT assay in N27 rat dopaminergic neural cells: inhibition of RSL3-induced cell death (ferroptosis)
- Type: cell-based
- Settings: Rattus norvegicus, N27, 24 h, ferroptosis induced by 0.5 μM RSL3, 24 hours, viability by MTT
Attribute Measured: log10 of IC50 (log10 of the value in nM)
Plainly stated, the numbers are log10 of IC50 given in nM.

Reference set, count: 6
CCCCCc1nc(NC2CCCC2)c2c(n1)SCCN2	0.48
Clc1nc2c(c(NC3CCCC3)n1)NCCC2	2.44
CC1(Nc2nc(-c3cccnc3)ccc2NC2CCOC2)CCOC1 (centres unmarked)	2.45
O=C(c1ccccc1)c1nc2c(c(NC3CCCC3)n1)NCCC2	2.45
CCOC(=O)c1ccc(NC2CCCCC2)c(N)n1	2.03
CCC(C)Nc1ccc(-c2ccncc2)nc1NC(C)(C)C (centres unmarked)	0.00

## Task Using the record for CC#Cc1nc2c(c(NC3CCCC3)n1)NCCC2 , state its measured log10 of IC50.
## Result 2.04

## Task Given CCCCC(=O)c1nc(NC2CCCC2)c2c(n1)OCCN2 , respond with its log10 of IC50.
## Result 2.59

## Task Please give measured log10 of IC50 of the following entry: CCCCC(=O)c1nc2c(c(NC(C)(C)C)n1)NCCC2
## Result 1.88

## Task For the compound CCCCC(=O)c1nc2c(c(N3CCCC3)n1)NCCC2 , give its measured log10 of IC50 value.
## Result 2.34

## Task Recall and state the measured log10 of IC50 for CCCCC(=O)c1cc(N)c2c(c1)CCCN2Cc1ccccc1 .
## Result 3.46

## Task Fill in log10 of IC50 for record CCC(C)Nc1ccc(C(F)(F)F)nc1NC1CCCC1 (centres unmarked)
## Result 1.65

## Task Respond only with log10 of IC50 recorded for OC(c1ccc(F)cc1)c1nc2c(c(NC3CCCC3)n1)NCCC2 (centres unmarked)
## Result 1.56

## Task Provide measured log10 of IC50 value, entry: CCCCC(OC)c1cc2c(c(Nc3ccccn3)c1)NCCC2 (centres unmarked)
## Result 1.85

## Task Consider the compound CCC(C)Nc1ccc(-c2ccc(C)cc2)nc1NC1CCCC1 (centres unmarked) and give its recorded log10 of IC50.
## Result 0.85

## Task Indicate the recorded log10 of IC50 value for this compound: CCCCN(C)c1nc2c(c(NC3CCCC3)n1)NCCC2
## Result 2.60

## Task Give the value of log10 of IC50 reported for the following: CC1(Nc2nc(C(F)(F)F)ccc2NC2CCOC2)CCOC1 (centres unmarked)
## Result 2.55

## Task Please report the measured log10 of IC50 for CCCCC(=O)c1cc2c(c(NC(C)(C)C)n1)NCCC2
## Result 1.11

* * *

- Tested on: N27 rat dopaminergic neural cells
- Experiment Notes: MTT assay in N27 rat dopaminergic neural cells: inhibition of RSL3-induced cell death (ferroptosis)
- Format: cell-based
- Settings: Rattus norvegicus, N27, 24 h, ferroptosis induced by 0.5 μM RSL3, 24 hours, viability by MTT
Measured IC50 of individual entries
Kindly provide the numeric value in nM only, without the unit symbol.

Here is how some compounds turned out for IC50.
CCC/C=C/c1nc(NC2CCCC2)c2c(n1)OCCN2	22
CCCCNc1nc2c(c(NC3CCCC3)n1)NCCC2	726
CCCCC(=O)c1nc2c(c(NC3CCCC3)n1)NCCC2	84

Now consider the entry below.
## Task Given CCOC(=O)c1cc2c(c(NC3CCCC3)c1)NC(=O)CC2 , report its IC50 on N27 rat dopaminergic neural cells.
## Result 1670

* * *

- Test system: N27 rat dopaminergic neural cells
- Experiment Notes: MTT assay in N27 rat dopaminergic neural cells: inhibition of RSL3-induced cell death (ferroptosis)
- Format: cell-based
- Settings: Rattus norvegicus, N27, 24 h, ferroptosis induced by 0.5 μM RSL3, 24 hours, viability by MTT
Attribute Measured: IC50 (nM)
The answer is to be given in nM; state only the numeric part.

CCCC(=O)c1ccc(NC2CC(F)(F)C2)c(NC2CC(F)(F)C2)n1	201
CCCCC(O)c1nc2c(c(N3CCCC3)n1)NCCC2 (centres unmarked)	492
CCC(C)Nc1ccc(-c2ccc(C)cc2)nc1NC(C)(C)C (centres unmarked)	5
CCCCCc1nc2c(c(NC3CCCC3)n1)NCCC2	170

Now consider the entry below.
## Task State its IC50 for this molecule: CCCC(=O)c1ccc(N)c(NC2CC(F)(F)C2)n1
## Result 498

* * *

Each entry below carries its reported IC50.
- Tested on: N27 rat dopaminergic neural cells
- Experiment Notes: MTT assay in N27 rat dopaminergic neural cells: inhibition of RSL3-induced cell death (ferroptosis)
- Assay type: cell-based
- Settings: Rattus norvegicus, N27, 24 h, ferroptosis induced by 0.5 μM RSL3, 24 hours, viability by MTT
Express it in nM; write the number only.

CCOC(=O)c1cc(N)c2c(c1)CCC(C)(C)N2	3820
CCCCC(=O)c1cc(N)c2c(c1)CCCN2S(=O)(=O)CC(C)C	4020
CCC(C)Nc1cnc(-c2cccnc2)nc1NC1CCCC1 (stereo not drawn)	89
CN(C)C(=O)c1ccc(-c2ccc(NC3CCC3)c(NC3(C)CCOC3)n2)cc1 (stereo not drawn)	24
CC(C)(C)C(=O)c1nc2c(c(NC3CCCC3)n1)NCCC2	248
CC1(Nc2nc(-c3ccncc3)nc3c2NCCC3)CCOC1 (stereo not drawn)	463

Please look at the following compound next.
## Task Look up N27 rat dopaminergic neural cells data: IC50 of c1cc(-c2ccc(NC3COC3)c(NC3CCCC3)n2)ccn1 , then report it.
## Result 13

* * *

- System: N27 rat dopaminergic neural cells
- Experiment Notes: MTT assay in N27 rat dopaminergic neural cells: inhibition of RSL3-induced cell death (ferroptosis)
- Format: cell-based
- Settings: Rattus norvegicus, N27, 24 h, ferroptosis induced by 0.5 μM RSL3, 24 hours, viability by MTT
IC50 for assorted molecules

Before answering, review these 5 worked examples.
CCCCC(=O)c1cc2c(c(N(S(=O)(=O)CC(C)C)S(=O)(=O)CC(C)C)c1)NCCC2	> 3000 nM
CC1=Nc2cc(C#N)ccc2NC1(C)C	> 3000 nM
CC1(Nc2nc(-c3ccc(F)cc3)ccc2NC2CCOC2)CCOC1 (centres unmarked)	3 to 6 nM
CCC/C=C/c1nc(NC2CCOC2)c2c(n1)OCC(=O)N2 (centres unmarked)	> 3000 nM
c1ncc(-c2ncc(NC3COC3)c(NC3CCCC3)n2)cn1	> 625 nM

## Task Jot down IC50 (N27 rat dopaminergic neural cells) of CCOC(=O)c1cc2c(c(C(=O)C(F)(F)F)c1)NC(C)(C)C=C2 .
## Result > 3000 nM

## Task Report its IC50 with N27 rat dopaminergic neural cells as the test system: CCCCC(=O)c1cc2c(c(-n3ccnc3)c1)NCCC2
## Result > 3000 nM

## Task Write IC50 of CCCCC(=O)c1cc2c3c(c1)nc(C(F)(F)F)n3CCC2 ; system used: N27 rat dopaminergic neural cells
## Result > 3000 nM
